Measured GI50 by item
tested on: OVCAR-3; assay: NCI tumour cell line growth inhibition, 48 h
Calls of active or inactive are those of the source. No stated cut-off is given here; in the data, active = GI50 up to about 1.1 µM and inactive = higher. Peptide text beside a SMILES is read from it. * marks the point of attachment. Boc = CC(C)(C)OC(=O)*; OBn = c1ccc(CO*)cc1

Some molecules with known GI50 results, for comparison:
INSERT INTO assay_data (molecule, measurementtarget, observedresult) VALUES
  ('C=CCC(CC=O)(C(=O)OCC)C(=O)OCC', 'OVCAR-3', '> 100 µM (inactive)'),
  ('Cc1sc2c(c1C)/C(=N\O)c1cccn1-2', 'OVCAR-3', '42.9 µM (inactive)'),
  ('O=C(O)/C(=C/C(=O)c1ccc(Cl)cc1)NNc1ccc([N+](=O)[O-])cc1[N+](=O)[O-]', 'OVCAR-3', '33.3 µM (inactive)');

Query :: Return GI50 for the following molecule: `CC1=CC[C@@H]2[C@@H](CC[C@@]2(C)O)C(C)(C)[C@H]1CC[C@@H]1[C@@]2(C)CCC(=O)C(C)(C)O[C@@H]2CC[C@]1(C)O`
Result :: 37.7 µM (inactive)

Query :: Return GI50 for the following molecule: CC(C)CC(NC(=O)OC(C)(C)C)C(=O)NC(CC(=O)OCc1ccccc1)C(N)=O (stereo not drawn) (Boc-Leu-Asp(OBn)-NH2; configuration not given here)
Result :: > 100 µM (inactive)
